- Test system: Streptococcus sp.
- protocolNotes: in vitro antibacterial evaluation, MIC by broth dilution
- Format: cell-based
- assayConditions: broth dilution, 18 hours at 35° C.; strain GC 4564
Catalogue of compounds with associated MIC Streptococcus agalactiae (GC 4564)

Please review the entries below; each comes with its answer.
compound	MIC Streptococcus agalactiae (GC 4564)
CC(c1ccccc1)C1NC(=O)CNC(=O)C(CO)NC(=O)C(C(O)C2CN(Cc3ccc(C(C)(C)C)cc3)C(=N)N2C2OC(CO)C(O)C(O)C2O)NC(=O)C(C(O)C2CNC(=N)N2)NC(=O)C(Cc2ccc(OC3OC(CO)C(OC4OC5COC6(OC5C(O)C4O)C4CC5CC(C4)CC6C5)C(O)C3O)cc2)NC1=O (stereo not shown)	1 µg/mL
CCCCCCN=C1NCC(C(O)C2NC(=O)C(C(O)C3CNC(=N)N3)NC(=O)C(Cc3ccc(OC4OC(CO)C(OC5OC6COC7(OC6C(O)C5O)C5CC6CC(C5)CC7C6)C(O)C4O)cc3)NC(=O)C(C(C)c3ccccc3)NC(=O)CNC(=O)C(CO)NC2=O)N1C1OC(CO)C(O)C(O)C1O (stereo not shown)	1 µg/mL
CC(C)CC(=O)OC1C(O)C(CO)OC(OC2C(CO)OC(Oc3ccc(CC4NC(=O)C(C(C)c5cccs5)NC(=O)CNC(=O)C(CO)NC(=O)C(C(O)C5CNC(=N)N5C5OC(CO)C(O)C(O)C5O)NC(=O)C(C(O)C5CNC(=N)N5)NC4=O)cc3)C(O)C2O)C1O (stereo not shown) [Example 265b]	8 µg/mL

Consider the additional compound presented here.
Provide only the value of recorded MIC Streptococcus agalactiae (GC 4564) for CC(C)CC1OCC2OC(OC3C(CO)OC(Oc4ccc(CC5NC(=O)C(C(C)c6ccccc6)NC(=O)CNC(=O)C(CO)NC(=O)C(C(O)C6CNC(=N)N6C6OC(CO)C(O)C(O)C6O)NC(=O)C(C(O)C6CNC(=N)N6)NC5=O)cc4)C(O)C3O)C(O)C(O)C2O1 (stereo not shown)
0.25 µg/mL

###

- Test system: Staphylococcus sp.
- protocolNotes: in vitro antibacterial evaluation, MIC by broth dilution
- Assay type: cell-based
- assayConditions: broth dilution, 18 hours at 35° C.
Each entry below carries its recorded MIC Staphylococcus aureus (GC 4545).

compound	testedOn	obsValue
CCCC(C)C1OCC2OC(OC3C(CO)OC(Oc4ccc(CC5NC(=O)C(C(C)c6ccccc6)NC(=O)CNC(=O)C(CO)NC(=O)C(C(O)C6CNC(=N)N6C6OC(CO)C(O)C(O)C6O)NC(=O)C(C(O)C6CNC(=N)N6)NC5=O)cc4)C(O)C3O)C(O)C(O)C2O1 (stereo not shown) [Example 111]	Staphylococcus sp.	1 µg/mL

Lab note: record MIC Staphylococcus aureus (GC 4545) of CC(c1ccccc1)C1NC(=O)CNC(=O)C(CO)NC(=O)C(CC2CNC(=N)N2C2OC(CO)C(O)C(O)C2O)NC(=O)C(CC2CNC(=N)N2)NC(=O)C(Cc2ccc(OC3OC(CO)C(OC4OC(CO)C(O)C(O)C4O)C(O)C3O)cc2)NC1=O (stereo not shown) [Example 277a] tested on Staphylococcus sp..
>128 µg/mL

// fetch MIC Staphylococcus aureus (GC 4545) for CC(C)CC(=O)OC1C(OC2C(CO)OC(Oc3ccc(CC4NC(=O)C(C(C)c5ccccc5)NC(=O)CNC(=O)C(CO)NC(=O)C(CC5CNC(=N)N5C5OC(CO)C(O)C(O)C5O)NC(=O)C(CC5CNC(=N)N5)NC4=O)cc3)C(O)C2O)OC(CO)C(O)C1O (stereo not shown) [Example 277b] ; system: Staphylococcus sp.
>64 µg/mL

Write down measured MIC Staphylococcus aureus (GC 4545) (Staphylococcus sp.) for this compound. CC(c1ccccc1)C1NC(=O)CNC(=O)C(CO)NC(=O)C(C(O)C2CNC(=N)N2C2OC(CO)C(O)C(O)C2O)NC(=O)C(C(O)C2CNC(=N)N2)NC(=O)C(Cc2ccc(OC3OC(CO)C(OC4OC(CO)C(OCC=C(c5ccccc5)c5ccccc5)C(O)C4O)C(O)C3O)cc2)NC1=O (stereo not shown) [Example 241a]
2 µg/mL

###

Quick list: MIC Streptococcus pneumoniae (GC 1894) per entry.
- Tested on: Streptococcus sp.
- protocolNotes: in vitro antibacterial evaluation, MIC by broth dilution
- Type: cell-based
- assayConditions: strain GC 1894; broth dilution, 18 hours at 35° C.
Write down the numeric answer in µg/mL and omit the unit.

Below are worked cases with known answers.
molecule	observationType	quantityUnit	obsValue
CC(c1ccccc1)C1NC(=O)CNC(=O)C(CO)NC(=O)C(C(O)C2CNC(=N)N2C2OC(CO)C(O)C(O)C2O)NC(=O)C(C(O)C2CNC(=N)N2)NC(=O)C(Cc2ccc(O)c(N(C)C)c2)NC1=O (stereo not shown)	MIC Streptococcus pneumoniae (GC 1894)	µg/mL	128
CC(c1ccccc1)C1NC(=O)CNC(=O)C(CO)NC(=O)C(C(O)C2CNC(=N)N2C2OC(CO)C(O)C(O)C2O)NC(=O)C(C(O)C2CNC(=N)N2)NC(=O)C(Cc2ccc3oc(-c4ccc(N(C)C)cc4)nc3c2)NC1=O (stereo not shown)	MIC Streptococcus pneumoniae (GC 1894)	µg/mL	32

Next:
Please give the documented MIC Streptococcus pneumoniae (GC 1894) of Cc1ccc(Oc2cccc(-c3nc4cc(CC5NC(=O)C(C(C)c6ccccc6)NC(=O)CNC(=O)C(CO)NC(=O)C(C(O)C6CNC(=N)N6C6OC(CO)C(O)C(O)C6O)NC(=O)C(C(O)C6CNC(=N)N6)NC5=O)ccc4o3)c2)cc1 (stereo not shown)
4

###

- Test system: Escherichia coli
- protocolNotes: in vitro antibacterial evaluation, MIC by broth dilution
- Assay type: cell-based
- assayConditions: strain ATCC 25922, 18 hours at 35° C.
observationType: MIC Escherichia coli (ATCC 25922)

compound	observationType	obsValue
COc1cc(OC)cc(C2OC3C(OC4C(CO)OC(Oc5ccc(CC6NC(=O)C(C(C)c7ccccc7)NC(=O)CNC(=O)C(CO)NC(=O)C(C(O)C7CNC(=N)N7C7OC(CO)C(O)C(O)C7O)NC(=O)C(C(O)C7CNC(=N)N7)NC6=O)cc5)C(O)C4O)OC(CO)C(O)C3O2)c1 (centres unmarked) [Example 150a]	MIC Escherichia coli (ATCC 25922)	>64 µg/mL

Using Escherichia coli as the test system, report measured MIC Escherichia coli (ATCC 25922) of COc1cc(OC)cc(C2OCC3OC(OC4C(CO)OC(Oc5ccc(CC6NC(=O)C(C(C)c7ccccc7)NC(=O)CNC(=O)C(CO)NC(=O)C(C(O)C7CNC(=N)N7C7OC(CO)C(O)C(O)C7O)NC(=O)C(C(O)C7CNC(=N)N7)NC6=O)cc5)C(O)C4O)C(O)C(O)C3O2)c1 (centres unmarked) .
>64 µg/mL

###

- Tested on: Staphylococcus sp.
- protocolNotes: in vitro antibacterial evaluation, MIC by broth dilution
- Format: cell-based
- assayConditions: broth dilution, 18 hours at 35° C.; strain GC 4538
Catalogue of compounds with associated MIC Coagulase Negative Staphylococcus (GC 4538)
Just the number in µg/mL, nothing appended.

compound	quantityUnit	obsValue
CC(c1ccccc1)C1NC(=O)CNC(=O)C(CO)NC(=O)C(C(O)C2CNC(=N)N2C2OC(CO)C(O)C(O)C2O)NC(=O)C(C(O)C2CNC(=N)N2)NC(=O)C(Cc2ccc(OC3OC(COC(=O)Cc4ccccc4)C(OC4OC(CO)C(O)C(O)C4O)C(O)C3O)cc2)NC1=O (stereo not shown) [Example 98b]	µg/mL	8
CCCCCCC(=O)OCC1OC(OC2C(CO)OC(Oc3ccc(CC4NC(=O)C(C(C)c5ccccc5)NC(=O)CNC(=O)C(CO)NC(=O)C(C(O)C5CNC(=N)N5C5OC(CO)C(O)C(O)C5O)NC(=O)C(C(O)C5CNC(=N)N5)NC4=O)cc3)C(O)C2O)C(O)C(O)C1O (stereo not shown) [Example 97b]	µg/mL	1
CCCCCCC(=O)OCC1OC(Oc2ccc(CC3NC(=O)C(C(C)c4ccccc4)NC(=O)CNC(=O)C(CO)NC(=O)C(C(O)C4CNC(=N)N4C4OC(CO)C(O)C(O)C4O)NC(=O)C(C(O)C4CNC(=N)N4)NC3=O)cc2)C(O)C(O)C1OC1OC(CO)C(O)C(O)C1O (stereo not shown) [Example 97a]	µg/mL	2

Moving on to another compound below.
Return the recorded MIC Coagulase Negative Staphylococcus (GC 4538) value; entry: CC(c1ccccc1)C1NC(=O)CNC(=O)C(CO)NC(=O)C(C(O)C2CNC(=N)N2C2OC(CO)C(O)C(O)C2O)NC(=O)C(C(O)C2CNC(=N)N2)NC(=O)C(Cc2ccc(OC3OC(CO)C(OC4OC(COC(=O)Cc5ccccc5)C(O)C(O)C4O)C(O)C3O)cc2)NC1=O (stereo not shown) [Example 98c]
1

###

- Test system: Enterococcus sp.
- protocolNotes: in vitro antibacterial evaluation, MIC by broth dilution
- Assay type: cell-based
- assayConditions: broth dilution, 18 hours at 35° C.; strain GC 4556
observationType: MIC Enterococcus faecium (GC 4556) (µg/mL)
Field format: number, assumed µg/mL, no unit text.

Consider the following illustrative entries.
compound	quantityUnit	MIC Enterococcus faecium (GC 4556)
CC(C)CC1OCC2OC(OC3C(CO)OC(Oc4ccc(CC5NC(=O)C(C(C)c6ccccc6)NC(=O)CNC(=O)C(CO)NC(=O)C(C(O)C6CNC(=N)N6C6OC(CO)C(O)C(O)C6O)NC(=O)C(C(O)C6CNC(=N)N6)NC5=O)cc4)C(O)C3O)C(O)C(O)C2O1 (centres unmarked)	µg/mL	4
CC(c1ccccc1)C1NC(=O)CNC(=O)C(CO)NC(=O)C(C(O)C2CNC(=N)N2C2OC(CO)C(O)C(O)C2O)NC(=O)C(C(O)C2CNC(=N)N2)NC(=O)C(Cc2ccc(OC3OC(CO)C(OC4OC(COCc5cccs5)C(O)C(O)C4O)C(O)C3O)cc2)NC1=O (centres unmarked)	µg/mL	32

Read the entry CC(c1ccccc1)C1NC(=O)CNC(=O)C(CO[Si](C)(C)C(C)(C)C)NC(=O)C(C(O)C2CNC(=N)N2C2OC3COC(C)(C)OC3C3OC(C)(C)OC32)NC(=O)C(C(O)C2CNC(=N)N2)NC(=O)C(Cc2ccc(O)cc2)NC1=O (centres unmarked) and write its reported MIC Enterococcus faecium (GC 4556).
32

Report measured MIC Enterococcus faecium (GC 4556); entry is CC(c1ccccc1)C1NC(=O)CNC(=O)C(CO)NC(=O)C(CC2CNC(=N)N2C2OC(CO)C(O)C(O)C2O)NC(=O)C(CC2CNC(=N)N2)NC(=O)C(Cc2ccc(OC3OC(CO)C(OC4OC(CO)C(O)C(OCc5ccc(OCc6ccccc6)cc5)C4O)C(O)C3O)cc2)NC1=O (centres unmarked) [Example 246b]
128

Read the entry CC(=O)OCC1OC(OC2C(CO)OC(Oc3ccc(CC4NC(=O)C(C(C)c5ccccc5)NC(=O)CNC(=O)C(CO)NC(=O)C(C(O)C5CNC(=N)N5C5OC(CO)C(O)C(O)C5O)NC(=O)C(C(O)C5CNC(=N)N5)NC4=O)cc3)C(O)C2O)C(O)C(OC(=O)CCC(C)C)C1O (centres unmarked) [Example 270b] and write its reported MIC Enterococcus faecium (GC 4556).
32

Please report the measured MIC Enterococcus faecium (GC 4556) for CC(c1ccccc1)C1NC(=O)CNC(=O)C(CO)NC(=O)C(C(O)C2CNC(=N)N2C2OC(CO)C(O)C(O)C2O)NC(=O)C(C(O)C2CNC(=N)N2)NC(=O)C(Cc2ccc(OC3OC(CO)C(OC4OC5COC(CC6CCCCC6)OC5C(O)C4O)C(O)C3O)cc2)NC1=O (centres unmarked)
2
